Listing of recorded EC50 by entry.
# test_target: T1, EBOV sGP (EBOV (Ebola Zaire), UniProt P60170 33-324)
# T1 sequence: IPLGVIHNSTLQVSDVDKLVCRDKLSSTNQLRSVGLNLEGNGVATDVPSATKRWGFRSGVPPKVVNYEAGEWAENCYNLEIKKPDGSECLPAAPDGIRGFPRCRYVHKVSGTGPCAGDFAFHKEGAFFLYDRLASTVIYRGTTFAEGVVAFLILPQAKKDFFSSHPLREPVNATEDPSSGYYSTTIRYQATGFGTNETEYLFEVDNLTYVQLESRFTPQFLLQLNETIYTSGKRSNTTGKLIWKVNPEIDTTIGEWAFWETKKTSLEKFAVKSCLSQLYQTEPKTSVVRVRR
# protocol: ELISA, sGP coated on plate, mAb serially diluted
Respond numerically; units are µg/mL and should not be typed.

# annotated cases, reported EC50 shown
INSERT INTO assay_data (binder, unit_label, observed_measurement) VALUES
  ('EBOV52 (antibody, V domains shown) VH: QVQLQESGPGLVKPSETLSLNCTVSGGSISSYYWSWIRQPPGKGLEWIGYIYDSGRTKYNPSLKSRVTISLDTSKNQFSLKLSSVTAADTAVYYCASLGPFDKLWFGELLPGWFDPWGQGTLVTVSS VL: EIVLTQSPATLSLSPGGRATLSCRASQSVHNYLAWYQQKSGQAPRLLIYDASNRATGIPARFSGSGSGTDFTLTISSLEPDDFAVYYCQHRSNWLTFGGGTKVEIK', 'µg/mL', 82),
  ('EBOV49 (antibody, V domains shown) VH: EVQLVESGGGLVQPGGSLRLSCAASGFTFSSYEINWVRQAPGRGLEWVSYISSSGRTIYYADSVKGRFTISRDNAKNSLYLQMNSLRAEDTAVYYCAREPYVDGILYGAGDSYFDYWGQGTLVTVSS VL: DIQMTQSPSSLSASVGDRVTITCRASQSISNYLNWYQQKPGKAPKVLIYAASSLQSGVSSRFSGSGSGTDFTLTISSLQPEDFATYFCQQSYNTPPVTFGQGTRLEIK', 'µg/mL', 61);

Challenge: Kindly indicate its recorded EC50. Item: EBOV87 (antibody, V domains shown) VH: QVQLVQSGAEVKRPGASVKVSCKASGYTFTSYAISWVRQAPGQGLEWMGWISGNNGNTNYAQKLQGRLTMTTDTSTSTAYMELRSLRSDDTAVYYCARDADIVVVVGATGTYYYGMDVWGQGTLVTVSS VL: DIVMTQSPSTLSASVGDRVTITCRASQSISSWLAWYQQKPGKAPKLLIYDASSLESGVPSRFSGSGSGTEFTLTISSLQPDDFATYYCQQYKSSLRTFGQGTQLEIK
Response given: 51

Challenge: Kindly indicate its recorded EC50. Item: EBOV62 (antibody, V domains shown) VH: EVQLVESGGGLVQPGGSLRLSCAASGFTFSSYWMSWVRQAPGKGLEWVANIKQDGSAKYYVDSVKGRFTISRDNAKNSLYLQMNSLRAEDTAVYYCARDGLLGISDLLYPIYYFDYWGQGTLVTVSS VL: DIVMTQSPSSLSASVGDRVTITCRASQNIGSYLNWYQQKPGKAPNLLMYAASSLQSGVPSRFSGSGSGTDFTLTITSLQPEDFATYYCQQSYSIPRTFGQGTQLEIK
Response given: 51
